test system: PC-3 prostate; experiment: NCI-60 one-dose screen, 48 h (100 = growth as untreated, 0 = no growth, -100 = all killed); conditions: 10 µM unless noted
Compounds without any hit were thinned out: in the full panel of roughly 83,000, 20% have a hit.
OUTCOME_MEASURE: growth (%)
One number for each entry, in %.

// solved cases for growth follow
- COMPOUND: "CCOC(=O)CN1/C(=N/c2sc3c(c2C(=O)OCC)CCN(C(=O)OCC)C3)SC(=O)/C1=C\\C(=O)OC"
  TARGET_SYSTEM: "PC-3 prostate"
  OUTCOME_MEASURE: "growth"
  UNIT_NAME: "%"
  EXPERIMENTAL_RESULT: 71.6
- COMPOUND: "COc1ccc2c(c1)OC1=C(C(=O)OC1)C2c1cc(OC)c2c(c1)OCO2 (stereo not given)"
  TARGET_SYSTEM: "PC-3 prostate"
  OUTCOME_MEASURE: "growth"
  UNIT_NAME: "%"
  EXPERIMENTAL_RESULT: 22
- COMPOUND: "COc1ccc(C(=O)NC(=O)Nc2cc3c(cc2F)/C(=C/c2[nH]c(C)c(CCC(=O)O)c2C)C(=O)N3)c(F)c1"
  TARGET_SYSTEM: "PC-3 prostate"
  OUTCOME_MEASURE: "growth"
  UNIT_NAME: "%"
  EXPERIMENTAL_RESULT: 22.6

Hey, quick one: what's growth for each of these?
1. C=C(C)[C@@H]1C[C@H](O)Cc2cc(F)ccc2N1
2. Fc1ccc(CNCCNc2ncnc3c2cnn3-c2ccccc2)cc1
3. COc1ccc(Nc2ncccc2C(=O)NCc2cn(Cc3cccc(Oc4ccccc4)c3)nn2)cc1
4. COc1cc(C2C3=C(COC3=O)Nc3cc4c(cc32)OCO4)cc2c1OCO2 (stereo not given)

91.6
86.6
54.7
24

Hey, quick one: what's growth for each of these?
1. Cc1ccc(Cc2c(C=O)nc(N)[nH]c2=O)c2ccccc12
2. Cc1cc(N/N=C/c2nc(-c3ccc(Br)cc3)oc2C)c2cc(Br)ccc2n1
3. Cc1ccc(-c2cc3nc(C(Cl)Cl)nc(-c4ccccc4C)n3n2)cc1

[88.8, 77.2, 43.1]
